test: Tmax in HBV patients at 50 mg, po qa administered for 28 days; type: ADME, organism-based; conditions: human, in vivo, time 28 day
measured.endpoint: Tmax (h)
Numbers only, in h.

Briefly, Tmax measured for CCCCCCCCCCCCCCCCOCCCOP(=O)(O)CO[C@H](C)Cn1cnc2c(N)ncnc21.N : 1.5

---

experiment: Tmax in C57BL/6 mouse plasma at 10 mg/kg, po measured up to 24 hrs by LC-MS/MS analysis; type: ADME, organism-based; conditions: in vivo
For each entry below, report its Tmax value.
Answers are plain numbers, in h.

smiles.record	Tmax, h
C[C@H](Cn1cnc2c(N)ncnc21)OCP(=O)(O)OCCCOCCCCCCCCCCCCCCCC(F)(F)F.N	2

Need Tmax for each of these compounds.
1. C[C@H](Cn1cnc2c(N)ncnc21)OCP(=O)(O)OCCCOCCCCCCCCCCCCCC#CC(F)(F)F.N
2. C[C@H](Cn1cnc2c(N)ncnc21)OCP(=O)(O)OCCCOCCCCCCCCCCCCC#C[Si](C)(C)C.N
3. CCCCCCCCCCCCCCCCOCCCOP(=O)(O)CO[C@H](C)Cn1cnc2c(N)ncnc21.N

[2, 2, 1]
